Values from patent US20080102065A1

Task for the reader: assign each of the following binders its reported Average EC50 (nM), UT-7-luciferase (STAT5 reporter) assay.
Biological target: T1, huEpoR expressed on the cell surface (UT-7 cells) (human, UniProt P19235 25-508)
T1 sequence (looked up): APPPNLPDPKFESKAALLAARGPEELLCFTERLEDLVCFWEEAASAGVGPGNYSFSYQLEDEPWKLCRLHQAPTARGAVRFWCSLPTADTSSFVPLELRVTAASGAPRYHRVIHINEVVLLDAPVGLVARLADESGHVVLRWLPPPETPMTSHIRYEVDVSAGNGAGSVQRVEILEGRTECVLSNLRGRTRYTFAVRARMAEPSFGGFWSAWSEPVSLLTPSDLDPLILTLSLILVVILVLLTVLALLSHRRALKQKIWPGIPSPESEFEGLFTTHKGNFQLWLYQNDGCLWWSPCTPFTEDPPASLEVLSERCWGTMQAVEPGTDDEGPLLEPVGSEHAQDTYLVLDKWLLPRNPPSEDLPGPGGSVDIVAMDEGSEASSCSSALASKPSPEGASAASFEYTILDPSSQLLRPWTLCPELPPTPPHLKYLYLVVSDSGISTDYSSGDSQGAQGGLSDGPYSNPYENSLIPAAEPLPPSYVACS
Assay: cell-based or functional assay
Unit nM implied. Number only.

Ask: Any idea what its Average EC50 (nM), UT-7-luciferase (STAT5 reporter) assay is? The binder is Mxb 352 (clone 352 scFv-Fc protein) (Fc fusion) VH: EVQLVQSGGGLVQPGGSLRLSCAASGFRFSSYWMTWVRQAPGKGLEWVANIKPDGSEKYYVDSVKGRFTMSRDNAKNSVYLQMNSLRAEDTAVYYCARVSRGGSFSDWGQGTLVTVSS VL: QSALTQPASVSGSPGQSITIPCTGTSSDIGTYDYVSWYQQHPGKVPKVIIYEVTNRPSGVSNRFSGSKSGNTASLTISGLQADDEADYYCNSFTKNNTWVFGGGTKLTVL
Result: 2.16

Ask: Any idea what its Average EC50 (nM), UT-7-luciferase (STAT5 reporter) assay is? The binder is Mxb 378 (clone 378 scFv-Fc protein) (Fc fusion) VH: QVQLVESGGGLVQPGRSLILSCAVSGFTFSKYWMTWVRQAPGKGLEWVANIKPDGSEKYYVESVKGRFTISRDNAKNSVYLQMNSVRAEDTAVYYCARVSRGGSFSDWSQGTLVTVSS VL: QSALTQPPSASGSPGQSVTISCTGTSGDVGAYNYVSWYQQYPGKAPKLMIYEVSKRPSGVPDRFSGSKSGNTASLTVSGLQAEDEADYYCNSYRGSNGPWVFGGGTKVTVL
Result: 0.055
